Parameter: cytotoxicity as a percentage of survived cells. Scope: all listed entries.
system: D 407 cells; assay: Cytotoxicity of amphiphile/DNA complexes, percentage of survived cells; assay type: cell-based, human; set-up: concentration or dose not given beside the values; details: amphiphile/DNA +/− charge ratio 4
PROPERTY: cytotoxicity as a percentage of survived cells

>>> measured_result("CCCCCCCCCCCCCCOC(=O)C1=C(C)NC(C)=C(C(=O)OCCCCCCCCCCCCCC)C1c1ccc[n+](C)c1.I.[I-] [VI]")
"12,13%"
>>> measured_result("CCCCCCCC/C=C\\CCCCCCCC(=O)OCC(C[N+](C)(C)C)OC(=O)CCCCCCC/C=C\\CCCCCCCC.[Cl-] (stereo not drawn) [DOTAP, reference compound]")
"81,34%"
>>> measured_result("CCCCCCCCCCCCCCCC(=O)OCCOC(=O)C1=C(C)NC(C)=C(C(=O)OCCOC(=O)CCCCCCCCCCCCCCC)C1c1ccc[n+](C)c1.I.[I-] [I]")
"31,39%"
